Test system: anti-CD28 scFv
Test: Phage binding ELISA (panning) of clonal phage on anti-CD28 scFv, with or without CD28 soluble protein
Settings: Phage binding ELISA; clonal phage supernatant, background wells
Classify by measured Backgroud signal: Met if it is equal to or exceeds 0.07, Not met if it is smaller.

Task item: Could you tell me if the measured Backgroud signal of Phage-140 (MDWCPMDLWDVCFN) reaches 0.07 or more?
Reply: Met

Task item: Decide: is the reported value of Backgroud signal for Phage-94 (MDWCPRDLWSLCFY) equal to or greater than 0.07?
Reply: Not met

Task item: Can Phage-133 (MDWCPRFLWDECFF) be said to have Backgroud signal at or above 0.07?
Reply: Not met

Task item: Does the substance Phage-151 (MDFCPISLWHECFF) have recorded Backgroud signal that is 0.07 or more?
Reply: Met

Task item: hey, is Backgroud signal for this one >= 0.07? Phage-99 (MDWCPRYLWNMCFH)
Reply: Met

Task item: hey, is Backgroud signal for this one >= 0.07? Phage-115 (MDWCPRYLWHECFN)
Reply: Met

Task item: Entry Phage-95 (MDWCPRFLWSECFN) : is its Backgroud signal no less than 0.07?
Reply: Not met

Task item: Does Phage-123 (MDWCPIHLWNECFA) have a reported Backgroud signal of at least 0.07?
Reply: Met

Task item: Does the substance Phage-157 (MDWCPRSLWSYCFH) have recorded Backgroud signal that is 0.07 or more?
Reply: Not met

Task item: Can Phage-98 (MDWCPKYLWDVCFN) be said to have Backgroud signal at or above 0.07?
Reply: Met

Task item: Backgroud signal >= 0.07 for Phage-88 (MDWCPIHLWHYCFN) ?
Reply: Met

Task item: Could you please find out whether Phage-122 (MDWCPRDLWDQCYA) has Backgroud signal that meets 0.07 or exceeds it?
Reply: Not met

Task item: Entry Phage-150 (MDWCPRHLWNVCFS) : is its Backgroud signal no less than 0.07?
Reply: Not met

Task item: Does the reported Backgroud signal for Phage-158 (MDWCPRYLWTECFF) fall at or above the 0.07 mark?
Reply: Met

Task item: Can Phage-135 (MDWCPKFLWHECFS) be said to have Backgroud signal at or above 0.07?
Reply: Not met

Task item: Reported Backgroud signal reaches at least 0.07 for Phage-131 (MDWCPRSLWIYCFN) ?
Reply: Met

Task item: Decide: is the reported value of Backgroud signal for Phage-120 (MDWCPRDLWHACFS) equal to or greater than 0.07?
Reply: Met

Task item: # check: Backgroud signal of Phage-154 (MDWCPRDLWNVCFA) is greater than or equal to 0.07
Reply: Met

Task item: Could you verify whether the entry Phage-138 (MDWCPTNLWHECFA) shows Backgroud signal of no less than 0.07?
Reply: Not met

Task item: Is the recorded value of Backgroud signal equal to or greater than 0.07 for this substance? Phage-111 (MDWCPFYLWNECFY)
Reply: Met

Task item: In plain terms: is recorded Backgroud signal at least 0.07 for Phage-119 (MDWCPRYLWHMCYS) ?
Reply: Met

Task item: Hello, I need to know if Phage-134 (MDWCPSYLWHECFA) has measured Backgroud signal not below 0.07. Thanks!
Reply: Met

Task item: Could you verify whether the entry Phage-113 (MDWCPRDLWNVCFF) shows Backgroud signal of no less than 0.07?
Reply: Met

Task item: State whether the measured Backgroud signal reaches 0.07, counting equality as reaching it, for Phage-139 (MDWCPRDLWDVCFA)
Reply: Met

Task item: Is Backgroud signal for Phage-97 (MDWCPKDLWDYCFA) at or above 0.07?
Reply: Met

Task item: Given the entry Phage-112 (MHWCPRALWDVCYN) , answer whether its Backgroud signal meets or surpasses 0.07.
Reply: Met

Task item: # check: Backgroud signal of Phage-152 (MDWCPKYLWDKCFH) is greater than or equal to 0.07
Reply: Met

Task item: Quick check, Backgroud signal >= 0.07? Phage-132 (MDWCPTYLWFECFN)
Reply: Met

* * *

Test system: anti-CD28 scFv
Assay: Phage binding ELISA (panning) of clonal phage on anti-CD28 scFv, with or without CD28 soluble protein
Conditions: clonal phage supernatant; background signal
measured quantity: Phage binding ELISA Backgroud signal
# respond with the number and nothing more

So, Phage-306 (MDWCPRHLWNECFA) ? Its Phage binding ELISA Backgroud signal was 0.068

Item: Phage-228 (ITWCHVISGLECWN) | Phage binding ELISA Backgroud signal: 0.076

Value of measured Phage binding ELISA Backgroud signal for the entry Phage-272 (MVWCMSVGWAVCLN) : 0.289

For this substance ( Phage-364 (MDWCPRSLWAQCFY) ), measured Phage binding ELISA Backgroud signal is 0.067

Entry Phage-169 (MDWCPRDLWNVCFN) ; Phage binding ELISA Backgroud signal = 0.100

Phage-292 (MDWCPRALWDHCFF) has a reported Phage binding ELISA Backgroud signal of 0.081

Per the records, this substance ( Phage-83 (MDWCPRFLWDECFN) ) has Phage binding ELISA Backgroud signal equal to 0.065

Phage binding ELISA Backgroud signal in this record for Phage-323 (MDWCPTYLWNVCFA) : 0.085

Phage binding ELISA Backgroud signal recorded for this substance, Phage-206 (IHWCPINMWDKCYN) , is 0.060

* * *

Give measured Backgroud signal for each item. Keep answers brief.
Test system: anti-CD28 scFv
Experiment: Phage binding ELISA (panning) of clonal phage on anti-CD28 scFv, with or without CD28 soluble protein
Conditions: Phage binding ELISA; clonal phage supernatant, background wells
Lab note: record just the number, no unit beside it.

// recorded Backgroud signal for Phage-116 (MDWCPRDLWYACFA) : 0.072

Quick note, Backgroud signal for Phage-110 (MDWCPRYLWDECFN) landed at 0.069

Backgroud signal in this record for Phage-147 (MHWCPRDLWVVCFN) : 0.070

So for Phage-126 (MDWCPRFLWNECFN) , the logged Backgroud signal turned out to be 0.072

So, Phage-149 (MDWCPRDLWAVCFA) ? Its Backgroud signal was 0.070

Value of measured Backgroud signal for the entry Phage-121 (MDWCPRDLWHVCFF) : 0.068
